Would you kindly list %Inh for each of these compounds?
# Tested on: PDPK1;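 further: KINOMEscan kinase panel screen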
# experimental parameters: concentration: 1 μM, replicates: in singlicate; n = 1

CCCc1ccc(S(=O)(=O)NC2CCN(c3ccnc(Nc4ccc(F)cc4)n3)C2)cc1 (stereo not shown) [GSK1379715]
82%
Cc1cccc(-c2nc(Nc3cccc(C(N)=O)c3)c3ccccc3n2)n1 [GW876019]
0%
Cc1ccccc1-n1cnc2c(N)ncnc21 [SKF-97510]
6%
CN(C)CCN(C)C(=O)c1cc(-c2ccncc2)c(-c2ccc(Cl)c(O)c2)o1.Cl.Cl [SB-710397]
0%
Cl.O=C(Nc1cccc(-c2nn3ncccc3c2-c2ccnc(Nc3cccnc3)n2)c1)c1c(F)cccc1F [GSK312879]
28%
O=C(Nc1n[nH]c2cc(-c3cccc(F)c3F)ccc12)C1CC1 [SB-733894]
19%
COc1cccc(NC(=O)NC2CCN(c3ccnc(Nc4ccc(F)cc4)n3)C2)c1 (stereo not shown) [GSK1379721]
0%
Cc1csc(-c2nc(Nc3ccncc3)c3ccccc3n2)n1 [GW869640]
0%
Cn1ccc2ncnc(Oc3cccc(C(=O)Nc4ccccc4)c3)c21
0%
COc1ccccc1-c1ccc2c(NC(=O)C3CC3)n[nH]c2n1 [SB-711239]
13%

For each of the items listed, what is its %Inh?
1. Cc1ccc(NC(=O)Nc2cc(C(C)(C)C)nn2-c2ccccc2)cc1 [GSK1014915]
2. CN1C(=O)C(Nc2ccc(Cl)c(C(=O)O)c2)=C(c2ccc(Cl)cc2)C1=O [SB-404290]
3. Cc1c(Cn2ccn3c(=O)cc(N4CCOCC4)nc23)cccc1C(F)(F)F [GSK2289044]
4. Cc1nnc(-c2ccc3occ(-c4ccc(S(C)=O)cc4)c3c2)[nH]1 (stereo not shown)
5. COc1ccc(CNC(=O)NC2CCN(c3ccnc(Nc4cc(OC)c(OC)c(OC)c4)n3)C2)cc1 (stereo not shown) [GSK1379748]
6. Cc1ccc(-c2cc(-c3c[nH]nc3-c3ccccn3)ccn2)cc1 [GW684088]
7. COc1ccc(Nc2nccc(NCCNC(=O)Nc3ccccc3F)n2)cc1 [GSK1379901]
8. Cc1cc(N2Cc3ccccc3C2)nc(Nc2ccc(S(=O)(=O)N3CCOCC3)cc2)n1.Cl [GSK1669917]

1. 0%
2. 0%
3. 17%
4. 0%
5. 0%
6. 0%
7. 0%
8. 0%

Record for COc1cc2ncnc(Nc3ccc4nc(-c5ccccc5)[nH]c4c3)c2cc1OC.Cl [GW282450] under target or system PDPK1: %Inh reported as 0%
